# maps each entry to its Editing Efficiency (Absolute, Average, two targets)
System: endogenous genome targets (ACTB, HSP90AA1)
Test: Arrayed SSAP library screening, mKate knock-in assay (editing efficiency)
Type: cell-based
Conditions: percent of mKate knock-in; average of HSP90 and ACTB; 3 days after transfection
Excerpt: Arrayed SSAP library screening on endogenous genome targets (ACTB. HSP90AA1) using mKate knock-in assay. SSAP-encoding plasmids were purified and quantified. […] Three days after transfection, mKate positive cells and cell viability were quantified across all replicates, along with positive (original RecT SSAP) and negative (Flag-HA control protein) controls. […]
Write the number on its own, no unit after it.

molecule: SSAP_220: SEQ ID NO: 389; Amycolatopsis circi (protein, listed as Amycolatopsis circi) ISQTVTTAVAQQKDSSPAALVRKYRTDFATVLPSHIKPETWLRIATGALRRSPQLANAAKRNPSSLLVALLEAARKGLEPGTEQFYLVPRKGKNGPEVLGITGYQGEVELMYRAGAVSSVKVEVVREHDTFAYNPGEHDRPVHEIDWRADRGDLVLTYAYAVMRDGATSNVVVLSADDIAVILKKADGADSPFSPWQWNPKAMWLKSAARQLAKWVPTSAEYVRLPDVPLESLPPAKPLDLPRVDDVVDAEIVEDWPTAPDDTADGAR
endpointResult: 11.375

Identify Editing Efficiency (Absolute, Average, two targets) associated with the molecule SSAP_198: SEQ ID NO: 367; Streptomyces sp. ms191 (protein, listed as Streptomyces sp.) VEHYKADLAQVMPSHVKPDTFIRLAVGVLRRDRNLAQAAQNNPAALMGALMDAAQLGLTPGTEQFYLVPRKKAGRLEVQGIRGYQGEIELIYRAGAVSSVIVEVVRQADTFRYSPGRDERPEHEIDWDAEDRGPLRLVYAYAVMKDGATSKVVVLNRAQVMKAKAMSQGSDSAYSPWQKHEEAMWMKTAAHRLTKWVPTSAEYMREQLRAAAEVAAEHRPTPVAAAPGMPSVPGEDEAIEAEFVDEDEVA
13.65
